Taken from ChEMBL document CHEMBL4513135.

# Inhibition per record follows
Tested on: Escherichia coli
Conditions: Concentration 32 ug.mL-1; ASSAY_TEST Inhibition of Bacterial Growth; detection method Absorption (OD600); MEDIA CAMHB; plate type 384well; NBS; CORNING #3640; time 18 hr
Description: Antibacterial activity against Escherichia coli ATCC 25922 (CO-ADD:GN_001); MIC in CAMBH media using NBS plates, by OD(600)
Results with a measured potency or affinity are listed apart.
Give just the number in %; leave the unit off.

The cases that follow already have their Inhibition on record.
Field Inhibition (system: Escherichia coli) for entry COc1cc(C2c3ccc4ccccc4c3Oc3nc4c(c(N)c32)CCCC4)ccc1O.Cl (stereo unspecified) = -1.18

Field Inhibition (system: Escherichia coli) for entry C=C1CNc2c(C#N)c(-c3ccccc3)c(C#N)c(=N)n21 = -9.94

Field Inhibition (system: Escherichia coli) for entry CCOC(=O)C1=C(C)Nc2nc3c(c(N)c2C1c1ccc([N+](=O)[O-])cc1)CCCC3.Cl (stereo unspecified) = -22.43

Further cases:
Field Inhibition (system: Escherichia coli) for entry CCOC(=O)/C(=C\c1ccccc1)C(=O)c1ccccc1 = 10.95

Field Inhibition (system: Escherichia coli) for entry COc1nc(NC(C)=O)c(C#N)c(-c2ccccc2)c1C#N = -7.58

Field Inhibition (system: Escherichia coli) for entry CC#CCN.Cl = 20.2

Field Inhibition (system: Escherichia coli) for entry N#CC1=C(Cl)Oc2ccc3ccccc3c2C1c1ccccc1 (stereo unspecified) = 12.43

Field Inhibition (system: Escherichia coli) for entry CCOC(=O)c1c(C)nc2nc3c(c(N)c2c1-c1ccccc1OC)CCCCC3 = -17.67

Field Inhibition (system: Escherichia coli) for entry NNC(=O)Cc1c[nH]c2ccccc12 = 13.76

Field Inhibition (system: Escherichia coli) for entry COc1cccc(C=C2N=C(c3ccccc3)OC2=O)c1OC(C)=O = 4.51

Field Inhibition (system: Escherichia coli) for entry COc1cccc(C2C(C#N)=C(N)Oc3[nH]nc(C)c32)c1 (stereo unspecified) = 6.61
